# protocolNotes: CCTE_Simmons_CellTiterGLO_HEK293T: Viability Assessment in CCTE's Assays for Thyroperoxidase (TPO) Inhibition, Simmons Lab (AID 2283665)
Records with an inconclusive call do not appear. Activity calls are given as the source filed them. The calls were made as follows: active = hit-call score of the fitted dose curve at least 0.9, where 1 is the maximum; inconclusive = response in the unintended direction; inactive = score below 0.9.
Lab note: assign the record to one of active, inactive

Called result for "NC(=O)N(O)[C@@H]1C=C[C@H](Oc2cccc(Oc3ccc(F)cc3)c2)C1"
active

Called result for "O=C(O)c1ccccc1C(c1ccc(O)cc1)c1ccc(O)cc1"
inactive

Called result for "CC(C)(C)c1cccc(C(C)(C)C)c1O"
active

Called result for "Cc1oc(-c2ccccc2)nc1CCOc1ccc(C[C@H](Nc2ccccc2C(=O)c2ccccc2)C(=O)O)cc1"
active

Called result for "Cc1cc(C)c(O)c(C)c1"
inactive

Called result for "CC(C)(C)c1cc(C(C)(C)C)c(O)c(C(C)(C)C)c1"
active

Called result for "CC[C@H](c1ccc(O)cc1)[C@@H](CC)c1ccc(O)cc1"
active

Called result for "Oc1cc2ccccc2c2ccccc12"
active

Called result for "CCN(CC)CCNc1ccc(CNC=O)c2sc3ccc(OC)cc3c(=O)c12"
active

Called result for "CN1CCN(c2ccccc2/C=C2\SCCN(c3ccc(Cl)c(Cl)c3)C2=O)CC1"
active

Called result for N#C[C@@H]1CC(F)(F)CN1C(=O)CNC1CC2CCC(C1)N2c1ncccn1 (stereo partly specified)
inactive
